These measurements were taken from ChEMBL document CHEMBL1201862.

Tested on: SF-268
Test: NCI tumour cell line growth inhibition, 48 h
Active and inactive are the calls of the source. Rule as the data show it: active = GI50 up to about 1.1 µM and inactive = higher.
Parameter call: string, one of 1 (yes) for active, 0 (no) for inactive

[
  {
    "Compound": "CC(=O)C1=C(C)NC(=C(C#N)C#N)C(C#N)=C1",
    "Category": "0 (no)"
  },
  {
    "Compound": "O=c1c2cc([N+](=O)[O-])ccc2n2n1Cc1ccccc1CC2",
    "Category": "0 (no)"
  },
  {
    "Compound": "O=C1C[C@@H]2[C@@H](C=CC23CCCC3)N1O",
    "Category": "0 (no)"
  }
]

Please share the test call associated with `O=C1CCSc2nc(-c3ccc4c(c3)OCO4)nn21` .
0 (no)

Please share the test call associated with C=CCCC1(CC(Sc2ccccc2)P(=O)(c2ccccc2)c2ccccc2)OCCO1 (stereo not given) .
0 (no)

Please share the test call associated with CN1C(=O)N/C(=C\c2ccc(S(=O)(=O)N/N=C\C(O)C(O)C(O)CO)cc2)C1=O (stereo not given) .
0 (no)

Please share the test call associated with CCCCCCCCCC[C@@H](O)[C@@H]1CC[C@H]([C@H]2CC[C@@H]([C@@H](O)CCCCCCCCCC[C@H]3CC(CC(C)=O)C(=O)O3)O2)O1 (stereo not given in full) .
0 (no)
